Test system: DU-145
assay.summary: NCI tumour cell line growth inhibition, 48 h
Calls of active or inactive are those of the source. Cut-off read from the data, not from the text of the source: active = GI50 up to about 1.1 µM and inactive = higher.
metric.name: GI50

>  <compound>
CC(C)(C)c1ccc2c(c1)CNCCNCc1cc(C(C)(C)C)ccc1OCC1(CO2)COc2ccc(C(C)(C)C)cc2CNCCNCc2cc(C(C)(C)C)ccc2OC1

>  <result>
1.73 µM (inactive)

$$$$
>  <compound>
C=C1C(=O)O[C@@H]2[C@H]1C[C@@H](O)[C@H](C)[C@@](O)(C(=O)/C=C/C)[C@H]2OC(=O)C(C)CC (some centres undefined)

>  <result>
4.27 µM (inactive)

$$$$

Input: Any idea what GI50 was measured for COc1cc2c(cc1OC)C(=O)/C(=C/c1ccc(Cl)cc1)CC2 ?
Output: > 10 µM (inactive)

Input: Any idea what GI50 was measured for C[C@]12CC[C@H]3[C@@H](CCC4=CC(=O)CC[C@@]43C)[C@]1(O)CC[C@]2(O)C(=O)CO ?
Output: > 100 µM (inactive)

Input: Any idea what GI50 was measured for Cc1ccc([S+]([O-])C[C@](NC(=O)OCc2ccccc2)(Sc2ccccc2)C(F)F)cc1 (some centres undefined) ?
Output: 18.7 µM (inactive)

Input: Any idea what GI50 was measured for CC(Cc1cccc2c1Nc1ccccc1S2)N(C)CCO (centres undefined) ?
Output: > 100 µM (inactive)

Input: Any idea what GI50 was measured for CC(=O)NNc1nc(C)c(C(=O)NNC(=O)C(=O)Nc2nc3ccc([N+](=O)[O-])cc3s2)s1 ?
Output: 70.1 µM (inactive)

Input: Any idea what GI50 was measured for S=C(NCc1ccccc1)c1nc[nH]c1C(=S)NCc1ccccc1 ?
Output: 9.27 µM (inactive)

Input: Any idea what GI50 was measured for Br[C@@H]1[C@H]2c3nc4ccccc4nc3[C@@H]1C[C@H]2Br ?
Output: 53 µM (inactive)

###

Recorded GI50 by entry
System: OVCAR-3
assay.summary: NCI tumour cell line growth inhibition, 48 h
Calls of active or inactive are those of the source. Cut-off read from the data, not from the text of the source: active = GI50 up to about 1.1 µM and inactive = higher.

Before answering, review these 5 worked examples.
>  <compound>
NC(=O)CCSC(CC(=O)c1ccc(Cl)cc1)c1ccc(Cl)cc1 (stereo unspecified)

>  <GI50>
19.2 µM (inactive)

$$$$
>  <compound>
O=[N+]([O-])c1ccc(-c2cc(O)c3nc4ccccc4n3c2)cc1

>  <GI50>
> 100 µM (inactive)

$$$$
>  <compound>
COc1ccc2[nH]c3c(c2c1)COc1ccccc1C3=O

>  <GI50>
> 100 µM (inactive)

$$$$
>  <compound>
CC(=O)/C(=C/n1c(=S)[nH]c2ccccc21)C(=O)Nc1ccccc1C

>  <GI50>
> 100 µM (inactive)

$$$$
>  <compound>
COC(=O)C(CC(=O)c1ccccc1)c1ccccc1NC(C)=O (stereo unspecified)

>  <GI50>
> 100 µM (inactive)

$$$$

Input: GI50 of CCOc1ccc([Se][Se]c2ccc(OCC)cc2)cc1 on OVCAR-3?
Output: > 100 µM (inactive)

###

Recorded GI50 by entry
System: SNB-19
assay.summary: NCI tumour cell line growth inhibition, 48 h
Activity calls are given as the source filed them. Cut-off read from the data, not from the text of the source: active = GI50 up to about 1.1 µM and inactive = higher.

>  <molecule>
C=C[C@@]1(C)CCC2(O)C(CCC3C2(C)CCC[C@@]3(C)COC(=O)CC(=O)OC)C1 (stereo not given in full)

>  <result>
31.6 µM (inactive)

$$$$

Input: Any idea what GI50 was measured for C/C(CC(O)(C(F)(F)F)C(F)(F)F)=N\N ?
Output: > 10 µM (inactive)

Input: Any idea what GI50 was measured for Cc1cccc2c3ccc4c(c3n(C)c12)C(=O)C=CC4=O ?
Output: > 100 µM (inactive)

Input: Any idea what GI50 was measured for Nc1n2nc(-c3ccccc3)sc2n[n+]1CC(=O)c1ccccc1 ?
Output: 21.7 µM (inactive)

Input: Any idea what GI50 was measured for C=C1C(=O)O[C@H]2[C@H]1[C@H](OC(=O)/C(C)=C\C)CC(=C)[C@@H]1[C@H](O)[C@H]3O[C@@]3(C)[C@@]12O ?
Output: > 100 µM (inactive)

These entries and their values trace back to ChEMBL document CHEMBL1201862.
